Target: human DGKα (Homo sapiens)
Construct: TVMV protease cleavage site (C); Hexa-His (C)
Sequence (P23743 with tags, fused parts or gaps): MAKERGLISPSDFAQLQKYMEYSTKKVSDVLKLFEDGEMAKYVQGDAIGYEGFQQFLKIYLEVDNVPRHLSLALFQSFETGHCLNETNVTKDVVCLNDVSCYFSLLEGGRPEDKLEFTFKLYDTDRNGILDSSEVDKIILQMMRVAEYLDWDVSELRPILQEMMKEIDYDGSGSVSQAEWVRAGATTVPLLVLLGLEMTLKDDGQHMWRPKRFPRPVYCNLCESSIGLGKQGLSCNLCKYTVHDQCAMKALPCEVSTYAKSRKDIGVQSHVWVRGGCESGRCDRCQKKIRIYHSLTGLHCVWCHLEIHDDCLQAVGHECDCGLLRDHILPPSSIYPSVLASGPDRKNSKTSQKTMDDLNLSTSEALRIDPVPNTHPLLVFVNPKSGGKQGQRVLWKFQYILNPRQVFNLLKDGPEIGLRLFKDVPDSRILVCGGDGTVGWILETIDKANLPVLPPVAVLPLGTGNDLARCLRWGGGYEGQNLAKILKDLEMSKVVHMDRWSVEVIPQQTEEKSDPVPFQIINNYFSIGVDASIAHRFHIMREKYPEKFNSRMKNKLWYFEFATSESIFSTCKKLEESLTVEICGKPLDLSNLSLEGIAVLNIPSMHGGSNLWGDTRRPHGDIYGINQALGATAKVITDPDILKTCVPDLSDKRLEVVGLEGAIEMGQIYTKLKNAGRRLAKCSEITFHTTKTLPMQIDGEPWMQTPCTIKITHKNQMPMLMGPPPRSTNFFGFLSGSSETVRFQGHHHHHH
Experiment: In vitro DGK inhibition assay, DGKα liposome (LIPGLO) assay
Details: read-out: Enzyme Inhibition DGKalpha IC50
Listed below: IC50 values for each entry.

Some solved cases for reference:
Cn1c(=O)cc(N(CC2CC2)c2ccc(F)nc2)c2nc(C#N)ccc21
0.15 µM
CN(C)c1cccc(-c2cccc(N(CC3CC3)c3cc(=O)n(C)c4ccc(C#N)nc34)c2)c1
6.3 µM
CN(C)C(=O)c1cccc(-c2ccc(N(CC3CC3)c3cc(=O)n(C)c4ccc(C#N)nc34)cc2)c1
3.2 µM
COc1ccc(N(C)c2cc(=O)n(C)c3ccc(C#N)nc23)cc1
0.65 µM
Cn1c(=O)cc(N(CC2CC2)c2ccc(F)cc2)c2nc(C#N)ccc21
0.22 µM
CN(C)c1ccc(N(CC2CC2)c2cc(=O)n(C)c3ccc(C#N)nc23)cc1
8.7 µM
COc1cccc(-c2cccc(N(CC3CC3)c3cc(=O)n(C)c4ccc(C#N)nc34)c2)c1
2 µM
Cn1c(=O)cc(N(CC2CC2)c2ccc(-c3cccc(Cl)c3)cc2)c2nc(C#N)ccc21
6.2 µM

Quickly give me recorded IC50 for "Cn1c(=O)cc(N(CC2CC2)c2ccc(C3CC3)c(-c3ccc(F)cc3)c2)c2nc(C#N)ccc21"
> 38 µM

Return IC50 for the following compound: "Cn1c(=O)nc(N(CC2CC2)c2ccc(C3CC3)cc2)c2nc(C#N)ccc21"
4.2 µM

Query IC50 for "CN(C)C(=O)c1ccc(-c2ccc(N(CC3CC3)c3cc(=O)n(C)c4ccc(C#N)nc34)cc2)cc1"
3.8 µM

Give recorded IC50. "Cn1c(=O)cc(N(CC2CC2)c2ccc(C3CC3)c(-c3ccccc3)c2)c2nc(C#N)ccc21"
19 µM

Please report the measured IC50 for "CN(c1cccc(-c2ccc(C3CC3)cc2)c1)c1cc(=O)n(C)c2ccc(C#N)nc12"
0.049 µM

Please report the measured IC50 for "COc1ccc(-c2cccc(N(C)c3cc(=O)n(C)c4ccc(C#N)nc34)c2)cc1"
0.18 µM

# return recorded IC50 for entry "Cn1c(=O)cc(N(CC2CC2)c2cccc(OC(F)(F)F)c2)c2nc(C#N)ccc21"
1.1 µM

Please look at this compound and report its IC50: "Cn1c(=O)c(C#N)c(N(CC2CC2)c2ccc(C3CC3)cc2)c2nc(C#N)ccc21"
> 37 µM

Retrieve IC50 measured for "Cn1c(=O)cc(N(CC2CC2)c2ccc(OC(F)F)nc2)c2nc(C#N)ccc21" and print it.
4.7 µM
